B1: CPEB3 Ribozyme (parent)
chain: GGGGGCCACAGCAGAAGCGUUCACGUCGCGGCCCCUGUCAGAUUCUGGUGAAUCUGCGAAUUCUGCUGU

- Variants of: B1
- procedure_summary: self-cleavage, relative activity (ratio to wild type); higher = more cleavage; co-transcriptional
Classify on self-cleavage using A (below 0.4), B (0.4 to below 0.7), C (0.7 or more)

chain="GGGGGCCAGAGCAGAAGCGUUCACGUCGCGGCCCCUAUCAGAUUCUGGUGAAUCUGCGAAUUCUGCUGU [C9G G37A]" answer_label=A

## Input Categorize the following entry: GGGGGCCACAGCAGAAGCGUUAACGUCGCGGCCCCUGUCAGAUUCUGGUGAAUCGGCGAAUUCUGCUGU [C22A U55G]
## Output A

## Input Categorize the following entry: GGGGGCCACAGCAGAAGCGUUCACGUCGCGGCCCCUGUCAGAUUCUGGUGAAUCUCCGAAUGCUGCUGU [G56C U62G]
## Output B

Hey, just so you know, these numbers are from the RNAGym collection of RNA variant scans (doi:10.7554/elife.80360).
